Values were extracted from ChEMBL document CHEMBL4665889.

Test protocol: Volume of distribution at steady state in Wistar Hannover rat at 0.3 to 0.5 mg/kg, iv by LC-MS/MS analysis
Type: ADME, organism-based
Condition info: in vivo, dose 0.3-0.5 mg/kg, time <=24 hrs, read-out: Vdss
Endpoint: Vd (L/kg)

Consider the reported Vd for these compounds:
> print(dat)
                                   compound  recorded.number
1  COc1cc(C(=O)N2CCOC(C)(CCO)C2)cc2nc(N[C@H](C)c3cccc(Cl)c3)oc12 (stereo not given in full)              5.6
2  CC[C@@H]1CO[C@@](C)(CCO)CN1C(=O)c1cc(OC)c2oc(N[C@H](C)c3cccc(Cl)c3)nc2c1              3.7
3  COc1cc(C(=O)N2CC[C@@H](O)[C@H](C)C2)cc2nc(NCc3cccc(Cl)c3)oc12              2.4
4  COc1cc(C(=O)N2CC(C)(CCO)OC[C@H]2C)cc2nc(N[C@H](CF)c3cccc(Cl)c3)oc12 (stereo not given in full)              3.3

P. COc1cc(C(=O)N2C[C@H](C)OC[C@@H]2CCO)cc2nc(N[C@H](CF)c3cccc(Cl)c3)oc12
Q. CCCCCCOC(=O)NC(=N)c1ccc(NCc2nc3cc(C(=O)N(CCC(=O)OCC)c4ccccn4)ccc3n2C)cc1 [DABIGATRAN ETEXILATE]
[Q] Form field 'greater Vd' accepts P or Q ; which applies? Response format: the label of the selected entry.
[A] P
(P: 3.5 L/kg, Q: 0.54 L/kg)

----------
Test protocol: AUC/dose in Wistar Hannover rat at 0.3 to 0.5 mg/kg, iv by LC-MS/MS analysis
Format: ADME, organism-based
Condition info: in vivo, dose 0.3-0.5 mg/kg, time <=24 hrs
Endpoint: AUC/dose (kg·h/L)

Here is how some compounds turned out for AUC/dose.
> print(dat)
                                   compound  recorded.number
1  COc1cc(C(=O)N2CC(C)OCC2CCO)cc2nc(NCc3cc(Cl)ccn3)oc12 (stereo unspecified)             0.39
2  COc1cc(C(=O)N2CC(C)OCC2CO)cc2nc(N[C@H](C)c3cccc(Cl)c3)oc12 (stereo partly specified)             0.47

I. COc1cc(C(=O)N2CC[C@@H](O)[C@H](C)C2)cc2nc(NCc3cccc(Cl)c3)oc12
II. COc1cc(C(=O)N2CC(C)(CCO)OC[C@H]2C)cn2nc(NCc3cccc(Cl)c3)nc12 (stereo partly specified)
III. CCCCCCOC(=O)NC(=N)c1ccc(NCc2nc3cc(C(=O)N(CCC(=O)OCC)c4ccccn4)ccc3n2C)cc1 [DABIGATRAN ETEXILATE]
[Q] Reorder: AUC/dose, max to min. List labels; respect the requested ordering.
[A] III, I, II
(III: 3 kg·h/L, I: 0.48 kg·h/L, II: 0.16 kg·h/L)

----------
Test protocol: Clearance in Wistar rat hepatocytes at 1 uM incubated up to 90 mins by LC-MS/MS analysis
Format: ADME, cell-based, Hepatocyte
Condition info: Wistar
Endpoint: CLhep predicted at 1 µM (mL/min/kg)

Please review the entries below; each comes with its answer.
> print(dat)
                                   compound                 endpoint  recorded.number
1  COc1cc(C(=O)N2CCC(O)CC2)cc2nc(NCc3cccc(Cl)c3)oc12  CLhep predicted at 1 µM             21.7
2  COc1cc(C(=O)N2CC(C)C(O)CC2C2CC2)cc2nc(NCc3cccc(Cl)c3)oc12 (racemic)  CLhep predicted at 1 µM             63.3
3  COc1cc(C(=O)N2C[C@H](C)OC[C@@H]2CCO)cc2nc(N[C@H](CF)c3cccc(Cl)c3)oc12  CLhep predicted at 1 µM             31.7
4  COc1cc(C(=O)N2CCC(O)C(C)C2)cc2nc(NC3(c4cccc(Cl)c4)CC3)oc12 (racemic)  CLhep predicted at 1 µM             46.7

a. COc1cc(C(=O)N2CCC(O)C(C)C2)cn2nc(NCc3cccc(Cl)c3)nc12 (racemic)
b. COc1cc(C(=O)N2CC(C)OCC2C2CC(O)C2)cc2nc(N[C@H](C)c3cccc(Cl)c3)oc12 (stereo not given in full)
[Q] Field: lower recorded CLhep predicted at 1 µM (choose a or b ) Your choice should be expressed through its label.
[A] a

I. COc1cc(C(=O)N2CC(C)(CCO)OC[C@H]2C)cn2nc(NCc3cccc(Cl)c3)nc12 (stereo not given in full)
II. COc1cc(C(=O)N2CC(C)OCC2CO)cc2nc(N[C@H](C)c3cccc(Cl)c3)oc12 (stereo not given in full)
[Q] // which entry reports the smaller CLhep predicted at 1 µM, I or II ? Indicate your choice by writing its label.
[A] II

P. COc1cc(C(=O)N2CCOC(C)(CCO)C2)cc2nc(N[C@H](C)c3cccc(Cl)c3)oc12 (stereo not given in full)
Q. COc1cc(C(=O)N2CC(C)CCC2CCO)cc2nc(NCc3cccc(Cl)c3)oc12 (racemic)
[Q] Among P and Q , whose measured CLhep predicted at 1 µM is the smaller figure? Answer by quoting the chosen item's label.
[A] P
